Target: T1, Human CD137 ECD (human)
T1 construct: entry includes C-terminal His-tag and biotin acceptor peptide; also called human CD137 extracellular domain; 4-1BB
T1 sequence (chain, as listed by the source limits assumed): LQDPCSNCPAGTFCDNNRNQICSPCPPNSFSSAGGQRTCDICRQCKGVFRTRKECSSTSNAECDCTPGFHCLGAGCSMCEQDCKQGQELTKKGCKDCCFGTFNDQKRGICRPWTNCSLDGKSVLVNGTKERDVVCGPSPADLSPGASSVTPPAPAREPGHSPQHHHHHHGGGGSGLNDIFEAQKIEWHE
Assay: Biacore SPR, vs parent H183/L072
The entries below are paired with their reported fold change of affinity.
API: value field is a number in fold; no unit string.

H183/L072 VL T31Y (antibody, name in Kabat numbering, V domains shown, Dual-Ig) VH: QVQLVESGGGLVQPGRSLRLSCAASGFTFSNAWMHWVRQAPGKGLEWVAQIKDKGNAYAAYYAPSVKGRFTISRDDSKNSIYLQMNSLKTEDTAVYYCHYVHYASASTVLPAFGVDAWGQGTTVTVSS VL: DIVMTQSPLSLPVTPGEPASISCQASQELVHMNRNYYLHWYQQKPGQAPRLLIYKVSNRFPGVPDRFSGSGSGTDFTLKISRVEAEDVGVYYCAQGTSVPFTFGQGTKLEIK	0.1

query: For the binder H183/L072 VL A25M (antibody, name in Kabat numbering, V domains shown, Dual-Ig) VH: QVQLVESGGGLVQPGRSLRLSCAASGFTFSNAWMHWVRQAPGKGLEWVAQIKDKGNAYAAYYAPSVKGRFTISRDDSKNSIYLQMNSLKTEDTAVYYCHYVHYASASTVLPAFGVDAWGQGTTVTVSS VL: DIVMTQSPLSLPVTPGEPASISCQMSQELVHMNRNTYLHWYQQKPGQAPRLLIYKVSNRFPGVPDRFSGSGSGTDFTLKISRVEAEDVGVYYCAQGTSVPFTFGQGTKLEIK , what fold change of affinity is on record?
result: 0.1

query: Another: H183/L072 VL N30D (antibody, name in Kabat numbering, V domains shown, Dual-Ig) VH: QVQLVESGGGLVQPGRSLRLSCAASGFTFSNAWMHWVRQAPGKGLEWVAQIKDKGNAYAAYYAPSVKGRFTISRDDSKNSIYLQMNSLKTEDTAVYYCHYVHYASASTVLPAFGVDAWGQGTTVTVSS VL: DIVMTQSPLSLPVTPGEPASISCQASQELVHMNRDTYLHWYQQKPGQAPRLLIYKVSNRFPGVPDRFSGSGSGTDFTLKISRVEAEDVGVYYCAQGTSVPFTFGQGTKLEIK
result: 0.1

query: Another: H183/L072 VL N53D (antibody, name in Kabat numbering, V domains shown, Dual-Ig) VH: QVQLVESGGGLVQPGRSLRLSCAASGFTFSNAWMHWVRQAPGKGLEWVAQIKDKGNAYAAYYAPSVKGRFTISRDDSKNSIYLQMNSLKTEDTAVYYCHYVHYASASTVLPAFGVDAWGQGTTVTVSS VL: DIVMTQSPLSLPVTPGEPASISCQASQELVHMNRNTYLHWYQQKPGQAPRLLIYKVSDRFPGVPDRFSGSGSGTDFTLKISRVEAEDVGVYYCAQGTSVPFTFGQGTKLEIK
result: 0.3

query: Another: H183/L072 VL T92W (antibody, name in Kabat numbering, V domains shown, Dual-Ig) VH: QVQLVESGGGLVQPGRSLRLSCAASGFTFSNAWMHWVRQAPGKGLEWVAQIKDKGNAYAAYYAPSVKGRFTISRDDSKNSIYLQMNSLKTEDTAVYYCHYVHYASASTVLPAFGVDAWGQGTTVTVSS VL: DIVMTQSPLSLPVTPGEPASISCQASQELVHMNRNTYLHWYQQKPGQAPRLLIYKVSNRFPGVPDRFSGSGSGTDFTLKISRVEAEDVGVYYCAQGWSVPFTFGQGTKLEIK
result: 0
